- tested target: Pin1 (Homo sapiens, UniProt Q13526)
- Sequence (Q13526 whole entry): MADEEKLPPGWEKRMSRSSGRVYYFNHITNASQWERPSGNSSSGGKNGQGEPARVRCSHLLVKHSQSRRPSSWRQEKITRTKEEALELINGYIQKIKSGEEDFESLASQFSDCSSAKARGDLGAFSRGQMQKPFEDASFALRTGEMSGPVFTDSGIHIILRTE
- assay notes: Cellular target engagement, live cell biotin competition assay in TNBC MDA-MB-231 cells
- Format: cell-based
- Parameters: endogenous in cells; host or cells: MDA-MB-231
- test conditions: TNBC MDA-MB-231 cells; read with the E6 line
Non-standard residues stand in square brackets, D forms with d. Residues, ends and D or L forms follow the SMILES beside them. *: point of attachment. NH(4-Me-benzyl) = Cc1ccc(CN*)cc1; NMeF = CN[C@@H](Cc1ccccc1)C(=O)O; Cit = NC(=O)NCCC[C@H](N)C(=O)O; Pip = O=C(O)[C@@H]1CCCCN1; ClAc = O=C(CCl)*
reported endpoint: Cellular Target Engagement? concentration stated for complete engagement

compound: CCOC(=O)[C@H](CCCNC(N)=O)NC(=O)[C@H](Cc1c[nH]c2ccccc12)NC(=O)[C@@H]1CCCCN1C(=O)[C@H](Cc1ccccc1)N(C)C(=O)CCl [Compound 18] (ClAc-[NMeF][Pip]W[Cit]-OEt)
result: at 5 μM

compound: Cc1ccc(CNC(=O)[C@H](CCCNC(N)=O)NC(=O)[C@H](Cc2c[nH]c3ccccc23)NC(=O)[C@@H]2CCCCN2C(=O)[C@H](Cc2ccccc2)N(C)C(=O)CCl)cc1 [Compound 11] (ClAc-[NMeF][Pip]W[Cit]-{NH(4-Me-benzyl)})
result: at 5 μM
